molecular target: KRAS G12C (Homo sapiens (Human), UniProt P01116, C118A/G12C); experiment: 2 h coupled exchange assay; type: biochemical; settings: Avg 2 h Coupled exchange IC50, 2 h compound pre-incubation
Sequence (P01116 other isoform, or with tags, fused parts or gaps G12C/C118A): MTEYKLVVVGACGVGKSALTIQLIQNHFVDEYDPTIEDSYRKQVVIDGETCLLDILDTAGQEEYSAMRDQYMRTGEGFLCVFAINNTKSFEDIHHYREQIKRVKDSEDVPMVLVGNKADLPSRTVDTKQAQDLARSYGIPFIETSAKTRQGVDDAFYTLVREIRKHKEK
OBSERVATION_TYPE: IC50 (nM)

Some compounds with recorded IC50:
C=CC(=O)N1CC2(CCN(c3nc4c(c(-c5c(C)c(Cl)cc6cnn(C)c56)c3C)COC(C)(C)C4)C2)C1 (single isomer, unassigned) [Example 14-89] :: 81
C=CC(=O)N1CC2(CCN(c3nc4c(c(-c5cccc6cc(O)ccc56)c3F)COC(C)(C)C4)C2)C1 (single isomer, unassigned) [Example 14-66] :: 33500
C=CC(=O)N1CC2(CCN(c3nc4c(c(-c5c(C)ccc6[nH]ncc56)c3C)COC(C)(C)C4)C2)C1 [Example 14-23] :: 102
C=CC(=O)N1CC2(CCN(c3nc4c(c(-c5cccc6cc(O)ccc56)c3C)CCN(C(C)C)C4)C2)C1 [Example 18-1] :: 37
C=CC(=O)N1CC2(CCN(c3nc4c(c(-c5c(C)ccc6cn[nH]c56)c3C#N)COC(C)(C)C4)C2)C1 (single isomer, unassigned) [Example 14-81] :: 45
C=CC(=O)N1CC2(CCN(c3nc4c(c(-c5ccc(F)cc5F)c3C#N)CCN(C(C)C)C4)[C@H]2C)C1 :: 853
C=CC(=O)N1CC2(CCN(c3nc4c(c(-c5cc(O)ccc5C)c3C)COC(C)(C)C4)C2)C1 [Example 14-30] :: 215
C=CC(=O)N1CC2(CCN(c3nc4c(c(-c5cc(O)ccc5Cl)n3)CCC(c3scnc3C)C4)C2)C1 (centres unmarked) :: 222

P = C=CC(=O)N1CC2(CCN(c3nc4c(c(-c5cc(O)cc6ccccc56)c3F)COC(C)(C)C4)C2)C1 [Example 14-68]
Q = C=CC(=O)N1CC2(CCN(c3nc4c(c(-c5cccc6c5cnn6C)c3C#N)C[C@H]3C[C@@H]4C3(C)C)C2)C1
Incoming: Hey, between P and Q which has a smaller measured IC50? // respond with label for picked entry
Outgoing: P

1 = C=CC(=O)N1CC2(CCN(c3nc4c(c(-c5c(C)ccc6[nH]ncc56)c3C)COC(C)(C)C4)C2)C1 (single isomer, unassigned) [Example 14-33]
2 = C=CC(=O)N1CC2(CCN(c3nc4c(c(-c5ncccc5F)c3C#N)CCC(c3scnc3C)=C4)C2)C1
Incoming: Hey, between 1 and 2 which has a smaller measured IC50? // respond with label for picked entry
Outgoing: 1
(1: 44 nM, 2: 197 nM)

1 = C=CC(=O)N1CC2(CCN(c3nc4ccccc4c(-c4c(C)c(Cl)cc5[nH]ncc45)c3C#N)C2)C1
2 = C=CC(=O)N1CC2(CCN(c3nc4c(c(-c5ccccc5F)c3C#N)CCC3(c5scnc5C)C4C3(F)F)C2)C1 (centres unmarked)
3 = C=CC(=O)N1CC2(CCN(c3nc4cc(-c5scnc5C)ccc4c(-c4ccc(F)cc4F)c3C#N)C2)C1
4 = C=CC(=O)N1CC2(CCN(c3nc4c(c(-c5ccccc5F)c3C#N)CCN(c3scnc3C)[C@H]4C)C2)C1
Incoming: Reorder: IC50, max to min. Returns: the labels arranged in the requested order.
Outgoing: 4, 2, 3, 1
(4: 930 nM, 2: 179 nM, 3: 104 nM, 1: 43 nM)

A = C=CC(=O)N1CC2(CCN(c3nc4c(c(-c5ccccc5F)c3C#N)CC[C@@](C)(c3scnc3C)C4)C2)C1
B = C=CC(=O)N1CC2(CCN(c3nc4c(c(-c5ccc(F)cc5F)c3C)CC[C@@H](c3c(C)cnn3C)C4)C2)C1
C = C=CC(=O)N1CC2(CCN(c3nc4cc(-c5scnc5C)ccc4c(-c4ccccc4Cl)c3C#N)C2)C1 (single isomer, unassigned) [Example 20-3]
Incoming: Reorder: IC50, max to min. Returns: the labels arranged in the requested order.
Outgoing: C, B, A
(C: 277 nM, B: 134 nM, A: 39 nM)

P = C=CC(=O)N1CC2(CCN(c3nc4c(c(-c5ccccc5C)c3C#N)CCC(c3scnc3C)C4)C2)C1 (centres unmarked)
Q = C=CC(=O)N1CC2(CCN(c3nc4cc(-c5cncnc5)ccc4c(-c4ccc(F)cc4F)c3C#N)C2)C1
Incoming: API: POST /compare with P and Q ; response names the item with higher IC50. // respond with label for picked entry
Outgoing: Q

a = C=CC(=O)N1CC2(CCN(c3nc4c(c(-c5cccc6cc(O)ccc56)c3C)CCN(C(C)C)C4)C2)C1 (single isomer, unassigned) [Example 18-4]
b = C=CC(=O)N1CC2(CCN(c3nc4c(c(-c5cccc6cc(O)ccc56)c3C)COC(C)(C)C4)C2)C1 [Example 14-43]
c = C=CC(=O)N1CC2(CCN(c3nc4c(c(-c5ccc(F)cc5F)c3C#N)CCN(c3scnc3C)C4)C2)C1
d = C=CC(=O)N1CC2(CCN(c3nc4c(c(-c5ccccc5F)c3C#N)CCN(c3nccn3C)C4)C2)C1
Incoming: Reorder: IC50, max to min. Returns: the labels arranged in the requested order.
Outgoing: d, b, c, a

----------
target: KRAS G12C (Homo sapiens (Human), UniProt P01116, C118A/G12C); test: 2 h coupled exchange assay; format: biochemical; conditions: Avg 2 h Coupled exchange IC50, 2 h compound pre-incubation
OBSERVATION_TYPE: IC50 (nM)

a = C=CC(=O)N1CC2(CCN(c3nc4c(c(-c5c(C)ccc6cnn(C)c56)c3C)COC(C)(C)C4)C2)C1 (single isomer, unassigned) [Example 14-100]
b = C=CC(=O)N1CC2(CCN(c3nc4c(c(-c5c(C)ccc6[nH]ncc56)c3C)COC(C)(C)C4)C2)C1 (single isomer, unassigned) [Example 14-34]
Incoming: Hey, between a and b which has a smaller measured IC50? // respond with label for picked entry
Outgoing: a

----------
target: KRAS G12C (Homo sapiens (Human), UniProt P01116, C118A/G12C); test: 2 h coupled exchange assay; type: biochemical; conditions: Avg 2 h Coupled exchange IC50, 2 h compound pre-incubation, SOS-mediated nucleotide exchange
pIC50: −log10 of the molar value.
OBSERVATION_TYPE: pIC50

C=CC(=O)N1CC2(CCN(c3nc4c(c(-c5cccc(C)c5C)n3)CCCC4)C2)C1 :: 5.40
C=CC(=O)N1CC2(CCN(c3nc4c(c(-c5cccc(F)c5O)c3C#N)C[C@H]3C[C@@H]4C3(C)C)C2)C1 (single isomer, unassigned) [Example 2-72] :: 6.19
C=CC(=O)N1CC2(CCN(c3nc4c(c(-c5cc(Cl)cc6cc[nH]c56)c3C#N)COC(C)(C)C4)C2)C1 :: 6.36
C=CC(=O)N1CC2(CCN(c3cc4c(c(-c5c(C)c(Cl)cc6cnn(C)c56)c3C#N)OCCC4)[C@H]2C)C1 :: 7.77
C=CC(=O)N1CC2(CCN(c3nc4ccccc4c(-c4c(C)ccc5cn[nH]c45)c3C#N)C2)C1 :: 6.16

1 = C=CC(=O)N1CC2(CCN(c3nc4c(c(-c5c(C)ccc6[nH]ncc56)c3C#N)CCC(C)(C)C4)[C@@H]2CF)C1 (stereo in doubt)
2 = C=CC(=O)N1CC2(CCN(c3nc4c(c(-c5ccccc5Cl)c3C#N)C[C@H]3C[C@@H]4C3(C)C)C2)C1
Incoming: Hey, between 1 and 2 which has a smaller measured pIC50? // respond with label for picked entry
Outgoing: 2

P = C=CC(=O)N1CC2(C1)CN(c1nc3c(c(-c4c(C)ccc5[nH]ncc45)c1C#N)CCC(C)(C)C3)CC2(F)F
Q = C=CC(=O)N1CC2(CCN(c3nc4c(c(-c5c(Cl)ccc6[nH]ccc56)c3C#N)COC(C)(C)C4)C2)C1
R = C=CC(=O)N1CC2(CCN(c3nc4c(c(-c5ccc(F)c6cc[nH]c56)c3C#N)COC(C)(C)C4)C2)C1
S = C=CC(=O)N1CC2(CCN(c3nc4c(c(-c5c(C)ccc6cnn(C)c56)c3C#N)C[C@H]3C[C@@H]4C3)C2)C1 (single isomer, unassigned) [Example 13-117]
T = C=CC(=O)N1CC2(CCN(c3nc4cc(F)ccc4c(-c4c(C)ccc5[nH]ncc45)c3C)[C@H]2C)C1 (single isomer, unassigned) [Example 2-60]
Incoming: Reorder: pIC50, max to min. Returns: the labels arranged in the requested order.
Outgoing: P, Q, R, T, S

I = C=CC(=O)N1CC2(CCN(c3nc4c(c(-c5c(C)ccc6[nH]ncc56)c3C#N)[C@H]3CC[C@@H]4C3)C2)C1 (single isomer, unassigned) [Example 14-5]
II = C=CC(=O)N1CC2(CCN(c3nc4c(c(-c5c(C)ccc6cnn(C)c56)c3C#N)CCC(C)(C)C4)C2)C1 (single isomer, unassigned) [Example 13-150]
III = C=CC(=O)N1CC2(CCN(c3nc4c(F)cccc4c(-c4c(C)ccc5[nH]ncc45)c3C#N)CC2(F)F)C1
IV = C=CC(=O)N1CC2(CCN(c3nc4c(c(-c5c(C)ccc6cnn(C)c56)c3C#N)CC[C@@H]3C[C@H]43)C2)C1 (single isomer, unassigned) [Example 13-134]
Incoming: Rank the items in ascending order with respect to pIC50. Returns: the labels arranged in the requested order.
Outgoing: IV, II, III, I
(IV: 4.41, II: 5.54, III: 6.07, I: 6.89)

a = C=CC(=O)N1CC2(CCN(c3nc4c(c(-c5cccc6cc(N)ncc56)c3C#N)COC(C)(C)C4)C2)C1
b = C=CC(=O)N1CC2(CCN(c3cc4c(c(-c5c(C)ccc6cnn(C)c56)c3Cl)OCCC4)C2)C1
c = C=CC(=O)N1CC2(CCN(c3nc4c(c(-c5cccc(C)c5Cl)c3C#N)COC(C)(C)C4)C2)C1
d = COC/C=C/C(=O)N1CC2(CCN(c3nc4c(c(-c5c(C)ccc6[nH]ncc56)c3C#N)CCC(C)(C)C4)C2)C1
e = C=CC(=O)N1CC2(CCN(c3nc4c(c(-c5c(C)ccc6[nH]ncc56)c3C#N)COC(C)(C)C4)C2)C1
Incoming: Reorder: pIC50, max to min. Returns: the labels arranged in the requested order.
Outgoing: e, b, a, d, c
